# Tested system: T1, UNK ZnF1-3 (human, UniProt Q9C0B0 31-174)
# T1 sequence: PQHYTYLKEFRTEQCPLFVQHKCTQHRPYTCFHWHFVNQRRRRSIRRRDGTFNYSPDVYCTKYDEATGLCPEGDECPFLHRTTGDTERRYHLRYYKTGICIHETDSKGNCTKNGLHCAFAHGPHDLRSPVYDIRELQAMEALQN
# Assay comment: nsRBNS (natural sequence RNA bind-n-seq); RBNS binding buffer (assumed for nsRBNS): 25 mM Tris pH 7.5, 150 mM KCl, 3 mM MgCl2, 0.01% Triton X-100, 500 ug/ml BSA, 20 U/ml SUPERase-In, 4 C; UNK is unkempt and MSI1 is Musashi-1; names of the RNAs are library labels; protein concentration not given here; high values mean tight binding
The full ranking holds about 24,000 sequences; the median of “enrichment r” is about 0.99, and the highest 2% start at about 3.7. Only a selection was taken, and the highest values are over-represented in it overall.
So basically: is binding signal under 4 enrichment R? Then yes (1). Not under? Then no (0).

I'd appreciate it if you could check whether chr17:60770872:60770873:+_ENSG00000011028_ENST00000303375|hu_hu|hu_hu_hu_mus_True|8_78 (ssRNA) RNA: GGGAGUUCUACAGUCCGACGAUCUCUUUAAAAAAAAAAAAAAAAAGACAAACAAUAAUAAUGGCACUCGAGAAUCAAGAACUACAAUAGAGGGUCCGCUUUGAGUUUUUGUUCACAUCGUCCUGCAACGCUGUCGCGGGACUGCAACAGAGGAUUGAGCAUCA has binding signal smaller than 4 enrichment R.
yes (1)

API: query returns whether the binder falls strictly under 4 enrichment R in binding signal. Query: chr17:60770872:60770873:+_ENSG00000011028_ENST00000303375|hu_hu|hu_hu_hu_mus_True|78_88 (ssRNA) RNA: GGGAGUUCUACAGUCCGACGAUCUCUUUAAAAAAAAAAAAAAAAAGUUUAAAAACAAUAAUGGCACUCGAGAAUCAAGAACUACAAUAGAGGGUCCGCUUUGAGUUUUUGUUCACAUCGUCCUGCACUGGGACACGGGGACUGCAACAGAGGAUUGAGCAUCA
no (0)

Is binding signal of chr17:60770872:60770873:+_ENSG00000011028_ENST00000303375|hu_hu|hu_hu_hu_mus_True|28_78 (ssRNA) RNA: GGGAGUUCUACAGUCCGACGAUCUCUUUAAAAAAAAAAAAAAAAAGACAAACAAUAAUAAUGGCACUCGAGAAUCAAGAACUACAAUAGAGGGUCCGCUUUGAGUUGUCCAUGUUCUCGUCCUGCACUGGGACACGGGGACUGCAACAGAGGAUUGAGCAUCA strictly below 4 enrichment R?
yes (1)

Lab log: compare recorded binding signal with 4 enrichment R; is it strictly lower for chrX:131339380:131339381:-_ENSMUSG00000033436_ENSMUST00000035559|mus_hu|FALSE|FALSE (ssRNA) RNA: GGGAGUUCUACAGUCCGACGAUCACUGAGAAGUUUCUUCAACAUAUCUGGAUUUUCAGCAAAAUUCGAAAGGAUUUUCAAAAUCUCAACCUUGAUUUUUCCACCUCCCUGAGAUAGCAAACGGAAAAAGUUUGCAAUGGAAUUCAACAGAGGAUUGAGCAUCA ?
yes (1)

Please check: binding signal for chr17:60770872:60770873:+_ENSG00000011028_ENST00000303375|hu_hu|hu_hu_hu_mus_True|78_78 (ssRNA) RNA: GGGAGUUCUACAGUCCGACGAUCUCUUUAAAAAAAAAAAAAAAAAGACAAACAAUAAUAAUGGCACUCGAGAAUCAAGAACUACAAUAGAGGGUCCGCUUUGAGUUUUUGUUCACAUCGUCCUGCACUGGGACACGGGGACUGCAACAGAGGAUUGAGCAUCA , strictly under 4 enrichment R or not?
no (0)

A record lists chr17:60770872:60770873:+_ENSG00000011028_ENST00000303375|hu_hu|hu_hu_hu_mus_True|1_78 (ssRNA) RNA: GGGAGUUCUACAGUCCGACGAUCUCUUUAAAAAAAAAAAAAAAAAGACAAACAAUAAUAAUGGCACUCGAGAAUCAAGAACUACAAUAGAGGGUCCGCUUUGAGUUUUUGUUCACAUCGUCCUGCACUGGGACACGACCAGGACAACAGAGGAUUGAGCAUCA . Is its binding signal below 4 enrichment R?
yes (1)
